System: S. aureus NIHJJC-1
Assay: MIC by agar plate dilution method
Type: cell-based
Details: Staphylococcus aureus, NIHJJC1, read-out: Minimum Inhibitory Concentration
Protocol: The minimum inhibitory concentrations (MIC: μg/ml) of the compounds of the present invention against various microorganisms were measured by an agar plate dilution method (inoculum size: 10^6 CFU/ml) by using Sensitivity Disk Agar (Nissui) in comparison with Cefotaxime and Ceftazidime as comparative compounds. Minimum Inhibitory Concentration (μg/ml; 10^6 CFU/ml)

{"columns": ["molecule", "MIC"],
 "data": [
  ["CON=C(C(=O)NC1C(=O)N2C(C(=O)[O-])=C(C[N+]3(C)CCc4cc(O)c(O)cc4C3)CSC12)c1csc(N)n1 (stereo not shown) [Ex. 3-E]", "1.56 µg/mL"],
  ["CO/N=C(\\C(=O)NC1C(=O)N2C(C(=O)[O-])=C(C[N+]3(C)CCc4cc(OC)c(OC)cc4C3)CSC12)c1csc(N)n1 (stereo not shown) [Ex. 2-E]", "1.56 µg/mL"],
  ["CC(C)(O/N=C(\\C(=O)N[C@@H]1C(=O)N2C(C(=O)[O-])=C(C[n+]3ccccc3)CS[C@H]12)c1csc(N)n1)C(=O)O [Ceftazidime, reference compound]", "3.12 µg/mL"],
  ["C[N+]1(CC2=C(C(=O)[O-])N3C(=O)C(NC(=O)C(=NOC4CCCC4)c4csc(N)n4)C3SC2)CCc2cc(O)c(O)cc2C1 (stereo not shown) [Ex. 16-D]", "1.56 µg/mL"]
]}

###

test system: P. aeruginosa AK109; assay: MIC by agar plate dilution method; assay type: cell-based; details: Pseudomonas aeruginosa, AK109, P. aeruginosa AK109; 10^6 CFU/ml; read-out: Minimum Inhibitory Concentration
endpoint.label: MIC (µg/mL)

{"columns": ["compound", "endpoint.label", "reported.value"],
 "data": [
  ["C[N+]1(CC2=C(C(=O)[O-])N3C(=O)C(NC(=O)C(=NOCC(=O)O)c4csc(N)n4)C3SC2)CCc2cc(O)c(O)cc2C1 (stereo not shown)", "MIC", 0.05],
  ["CCO/N=C(\\C(=O)NC1C(=O)N2C(C(=O)[O-])=C(C[N+]3(C)CCc4ccccc4C3)CSC12)c1csc(N)n1 (stereo not shown)", "MIC", 6.25],
  ["C[N+]1(CC2=C(C(=O)[O-])N3C(=O)C(NC(=O)C(=NOC4CCCC4)c4csc(N)n4)C3SC2)CCc2cc(O)c(O)cc2C1 (stereo not shown)", "MIC", 0.05],
  ["CO/N=C(\\C(=O)NC1C(=O)N2C(C(=O)[O-])=C(C[N+]3(C)CCc4cc(OC(C)=O)c(OC(C)=O)cc4C3)CSC12)c1csc(N)n1 (stereo not shown)", "MIC", 0.1],
  ["C[N+]1(CC2=C(C(=O)[O-])N3C(=O)C(NC(=O)C(=NOC4(C(=O)O)CCC4)c4csc(N)n4)C3SC2)CCc2cc(O)c(O)cc2C1 (stereo not shown)", "MIC", 0.025],
  ["CO/N=C(\\C(=O)NC1C(=O)N2C(C(=O)[O-])=C(C[N+]3(C)CCc4cc(OC(C)=O)ccc4C3)CSC12)c1csc(N)n1 (stereo not shown)", "MIC", 3.12],
  ["CC(C)ON=C(C(=O)NC1C(=O)N2C(C(=O)[O-])=C(C[N+]3(C)CCc4cc(O)c(O)cc4C3)CSC12)c1csc(N)n1 (stereo not shown)", "MIC", 0.05]
]}
